Measured Target: recombinant HA of influenza A H1 A/California/09 (influenza A virus H1 A/California/09)
Measurement Notes: recombinant HA ELISA (AttoPhos fluorescence, mean of triplicates)
Kindly state fold reactivity over background (fold over background) for each of the entries shown.
Could you respond with only the numeric value?

Which fold reactivity over background (fold over background) reading was recorded for the binder TRL847 (antibody, V domains shown) VH: QVQLVESGGGLVQPGGSLRLSCVASGFTFSRFSMNWVRQAPGMGLEWVSYISDTGRTIYYADSVKGRFTISRDNDKNTLYLQMKSLRDEDSAFYYCARDPDTPFVRAFDSWGQGVLVTVSS VL: DIVMTQSPSFLSASVGDRVTITCRTSQVISSYLAWYQQRPGKAPKLLIYAASTLQSGVPSRFSGSGSGTRFSLTISNLQPEDFATYFCQQLTTYPPITFGQGTRLEIKR ?
1.1

Which fold reactivity over background (fold over background) reading was recorded for the binder TRL579 (antibody, V domains shown) VH: QVQLVQSGAEVKKPGASVKVSCKTSGYTFTAYTIHWVRQAPGQRLEWMGWINAGNGHTKYSQRFKGRVTITRDTSARTTYMELRSLTSEDTALYFCARGPETYYYDKTNWLNSHPDEYFQHWGHGTQVTVSS VL: DIQMTQSPSTLSASVGDRVTITCRASQTINNYLAWYQQKPGKAPKLLIYKASSLESGVPSRFSGSGSGTEFTLTISSLQPDDFATYYCQEYNNDSPLTFGGGTKVEIKR ?
1

Which fold reactivity over background (fold over background) reading was recorded for the binder TRL813 (antibody, V domains shown) VH: QVQLVESGGGLVQPGGSLRLSCAASGFIFGDFAIHWVRQASGKGLEWVARIRSGLNRFETAYAASVEGRLTISRDDSKSMAYLQMNNVKAEDTAVYLCTYLVGAVGFQHWGQGTLVTVSS VL: DIVMTQSPSTLSASVGDRVTITCRASQTIYRWLAWYQQKPGKAPKVLIYKASTLESGVPSRFSGSGSGTEFTLAISSLQPDDFATYYCQQYNSFPYRFGQGTKVEIKR ?
1.6
